test system: rabbit cornea; test: rabbit model of lipopolysaccharide (LPS) induced corneal neovascularization; format: in vivo; conditions: day 22; Elvax-40 pellet in cornea; Elvax control = 100
RECORDED ENDPOINT: Relative Area of Neovascularization (relative area units)

>  <MOLECULE>
Cc1c(C)c2c(c(C)c1O)CC(C)(CCN1CCN(C(c3ccc(F)cc3)c3ccc(F)cc3)CC1)O2 (centres unmarked) [Compound E]

>  <RECORDED ENDPOINT>
Relative Area of Neovascularization

>  <READOUT UNITS>
relative area units

>  <OBSERVED>
115

$$$$
>  <MOLECULE>
C[C@]12CCC(=O)C=C1CC[C@@H]1[C@@H]2[C@@H](O)C[C@@]2(C)[C@H]1CC[C@]2(O)C(=O)COC(=O)CCC(=O)O [Hydrocortisone hemisuccinate, reference compound]

>  <RECORDED ENDPOINT>
Relative Area of Neovascularization

>  <READOUT UNITS>
relative area units

>  <OBSERVED>
4.9

$$$$
>  <MOLECULE>
COc1ccc2cc(C(C)C(=O)OCCC3(C)CCc4c(C)c(O)c(C)c(C)c4O3)ccc2c1 (centres unmarked) [Compound A]

>  <RECORDED ENDPOINT>
Relative Area of Neovascularization

>  <READOUT UNITS>
relative area units

>  <OBSERVED>
103

$$$$
>  <MOLECULE>
Cc1c(C)c2c(c(C)c1O)CCC(C)(CCO)O2 (centres unmarked) [F]

>  <RECORDED ENDPOINT>
Relative Area of Neovascularization

>  <READOUT UNITS>
relative area units

>  <OBSERVED>
39

$$$$
>  <MOLECULE>
COc1ccc2cc(C(C)C(=O)NCC3(C)CCc4c(C)c(O)c(C)c(C)c4O3)ccc2c1 (centres unmarked) [C]

>  <RECORDED ENDPOINT>
Relative Area of Neovascularization

>  <READOUT UNITS>
relative area units

>  <OBSERVED>
60

$$$$

* * *

tested on: human umbilical vein endothelial cells (HUVEC); assay: inhibition of endothelial cell proliferation (HUVEC); type: cell-based; conditions: Homo sapiens, concentration 10 μM

>  <MOLECULE>
Cc1c(C)c2c(c(C)c1OC(=O)CCC(=O)O)CCC(C)(CCCC(C)CCCC(C)CCCC(C)C)O2 (stereo not shown) [Compound G]

>  <inhibition at 10 µM / %>
35.1

$$$$
>  <MOLECULE>
Cc1c(C)c2c(c(C)c1O)CC(C)(CCN1CCN(C(c3ccc(F)cc3)c3ccc(F)cc3)CC1)O2 (stereo not shown) [Compound E]

>  <inhibition at 10 µM / %>
88

$$$$
>  <MOLECULE>
COc1ccc2cc(C(C)C(=O)OCCC3(C)CCc4c(C)c(O)c(C)c(C)c4O3)ccc2c1 (stereo not shown) [Compound A]

>  <inhibition at 10 µM / %>
43.4

$$$$
>  <MOLECULE>
COc1ccc2cc(C(C)C(=O)OCC3(C)Cc4c(C)c(O)c(C)c(C)c4O3)ccc2c1 (stereo not shown) [Compound B]

>  <inhibition at 10 µM / %>
47.7

$$$$

* * *

tested on: rabbit cornea; test: rabbit model of lipopolysaccharide (LPS) induced corneal neovascularization; format: in vivo; settings: day 4; Elvax-40 pellet in cornea; Elvax control = 100
RECORDED ENDPOINT: Relative Area of Neovascularization (relative area units)

>  <COMPOUND>
Cc1c(C)c2c(c(C)c1O)CCC(C)(CCO)O2 (centres unmarked)

>  <OBSERVED>
92

$$$$
>  <COMPOUND>
Cc1c(C)c2c(c(C)c1O)CC(C)(CCN1CCN(C(c3ccc(F)cc3)c3ccc(F)cc3)CC1)O2 (centres unmarked)

>  <OBSERVED>
99

$$$$
>  <COMPOUND>
COc1ccc2cc(C(C)C(=O)OCCC3(C)CCc4c(C)c(O)c(C)c(C)c4O3)ccc2c1 (centres unmarked)

>  <OBSERVED>
66

$$$$
>  <COMPOUND>
C[C@]12CCC(=O)C=C1CC[C@@H]1[C@@H]2[C@@H](O)C[C@@]2(C)[C@H]1CC[C@]2(O)C(=O)COC(=O)CCC(=O)O [Hydrocortisone hemisuccinate, reference compound]

>  <OBSERVED>
0

$$$$
>  <COMPOUND>
COc1ccc2cc(C(C)C(=O)NCC3(C)CCc4c(C)c(O)c(C)c(C)c4O3)ccc2c1 (centres unmarked)

>  <OBSERVED>
102

$$$$

The measured values listed here are drawn from patent US5798356A.
